Biological target: NTRK2 (human) (UniProt Q16620)
Sequence (Q16620 whole entry, looked up): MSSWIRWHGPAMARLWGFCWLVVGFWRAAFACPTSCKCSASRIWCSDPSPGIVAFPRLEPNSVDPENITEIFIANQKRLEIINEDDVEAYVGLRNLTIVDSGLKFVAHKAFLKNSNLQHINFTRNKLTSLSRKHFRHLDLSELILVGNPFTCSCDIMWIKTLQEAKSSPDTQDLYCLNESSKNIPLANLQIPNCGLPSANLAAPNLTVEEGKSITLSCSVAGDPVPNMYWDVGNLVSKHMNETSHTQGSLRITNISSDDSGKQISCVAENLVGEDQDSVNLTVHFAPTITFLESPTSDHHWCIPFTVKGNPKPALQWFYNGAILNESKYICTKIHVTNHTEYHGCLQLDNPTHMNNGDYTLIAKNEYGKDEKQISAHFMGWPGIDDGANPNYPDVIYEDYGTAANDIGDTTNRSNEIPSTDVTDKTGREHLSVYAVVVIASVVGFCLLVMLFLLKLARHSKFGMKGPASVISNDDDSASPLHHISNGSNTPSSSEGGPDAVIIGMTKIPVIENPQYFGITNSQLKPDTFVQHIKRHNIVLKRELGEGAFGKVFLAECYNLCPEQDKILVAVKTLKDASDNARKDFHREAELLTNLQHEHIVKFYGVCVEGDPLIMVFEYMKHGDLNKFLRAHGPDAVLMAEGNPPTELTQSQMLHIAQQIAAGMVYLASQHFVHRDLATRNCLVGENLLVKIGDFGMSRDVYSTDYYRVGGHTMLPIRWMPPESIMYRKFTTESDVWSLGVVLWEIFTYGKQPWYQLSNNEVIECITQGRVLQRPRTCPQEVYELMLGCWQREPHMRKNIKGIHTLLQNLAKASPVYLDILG
Assay: radiometric filter-binding kinase assay, Kinase HotSpot
Details: compound 0.5 µM; ATP 10 µM
Mark t only when residual activity stays strictly below 90%. Values equal to the cut-off are f.

recordSmiles | testSystem | categoryLabel
O=C1NC(=O)c2c1c1c3ccccc3[nH]c1c1[nH]c3cc(Br)ccc3c21 | NTRK2 (human) (UniProt Q16620) | t
N#Cc1c(NC(=O)c2cccc3ccccc23)sc2c1CCCC2 | NTRK2 (human) (UniProt Q16620) | f
CCCCc1c(-c2ccc(O)cc2)[nH]c2nccnc12 | NTRK2 (human) (UniProt Q16620) | t

These measurements were taken from the kinase profiling compilation of Christmann-Franck et al. (2016).
